system: Human alphaherpesvirus 2; experiment: microbe, parasite or virus in culture; settings: Human alphaherpesvirus 2, strain G, HEL
pEC50: −log10 of the molar value.
Exercise: state measured pEC50 for each of the compounds provided.

Look over these answered cases.
CC(C)c1ccc(-n2nncc2-c2cn([C@H]3C[C@H](O)[C@@H](CO)O3)c(=O)[nH]c2=O)cc1
< 4.00
O=c1[nH]c(=O)n([C@H]2C[C@H](O)[C@@H](CO)O2)cc1-c1cnnn1-c1ccc(Oc2ccccc2)cc1
< 4.00
O=c1[nH]c(=O)n([C@H]2C[C@H](O)[C@@H](CO)O2)cc1-c1cn(-c2ccc(OC(F)(F)F)cc2)nn1
< 4.30

Dear colleague, could you please provide pEC50 for the compounds listed below?
1. Nc1nc2c(ncn2COC(CO)CO)c(=O)[nH]1
2. O=c1[nH]c(=O)n([C@H]2C[C@H](O)[C@@H](CO)O2)cc1-c1cn(-c2ccc(Oc3ccccc3)cc2)nn1
3. O=c1[nH]c(=O)n([C@H]2C[C@H](O)[C@@H](CO)O2)cc1-c1cnnn1-c1ccc(Br)cc1
4. CCCCc1ccc(-n2cc(-c3cn([C@H]4C[C@H](O)[C@@H](CO)O4)c(=O)[nH]c3=O)nn2)cc1
5. O=c1[nH]c(=O)n([C@H]2C[C@H](O)[C@@H](CO)O2)cc1/C=C/Br
6. CSc1ccc(-n2cc(-c3cn([C@H]4C[C@H](O)[C@@H](CO)O4)c(=O)[nH]c3=O)nn2)cc1
7. CC(C)(C)c1ccc(-n2cc(-c3cn([C@H]4C[C@H](O)[C@@H](CO)O4)c(=O)[nH]c3=O)nn2)cc1
8. O=c1[nH]c(=O)n([C@H]2C[C@H](O)[C@@H](CO)O2)cc1-c1cn(-c2cc(F)cc(F)c2)nn1

Result:
7.40
≤ 4.37
< 4.00
< 4.30
3.74
< 4.30
< 4.30
< 3.66

Report pEC50 for every entry below.
1. O=c1[nH]c(=O)n([C@H]2C[C@H](O)[C@@H](CO)O2)cc1-c1cn(-c2ccc(Br)cc2)nn1
2. Nc1ccn(C[C@@H](CO)OCP(=O)(O)O)c(=O)n1
3. O=c1[nH]c(=O)n([C@H]2C[C@H](O)[C@@H](CO)O2)cc1-c1cn(-c2ccc([N+](=O)[O-])cc2)nn1
4. CC(C)c1ccc(-n2cc(-c3cn([C@H]4C[C@H](O)[C@@H](CO)O4)c(=O)[nH]c3=O)nn2)cc1
5. O=c1[nH]c(=O)n([C@H]2C[C@H](O)[C@@H](CO)O2)cc1-c1cn(-c2c(F)cccc2F)nn1
6. O=c1[nH]c(=O)n([C@H]2C[C@H](O)[C@@H](CO)O2)cc1-c1cnnn1-c1c(F)cccc1F

Result:
["≤ 4.00", 5.85, "< 4.30", "< 5.00", "≤ 4.30", "< 4.00"]
